- Species: Rattus norvegicus
- Experiment: Open TG-GATES - Regimen: Single
- Assay type: toxicity, organism-based, Sprague-Dawley
- Set-up: regimen Single, gender Male, age 6 weeks
- Assay Context: in vivo, po, 10 mg/kg, 9 h, tissue Plasma, route gavage, dose level Low
For each record, check the reported gamma-GTP: if it is below 1 IU/L write 1.0, else write 0.0.

## Input In plain terms, does CC1=C(/C=C/C(C)=C/C=C/C(C)=C/CO)C(C)(C)CCC1 [RETINOL] come in under 1 IU/L for gamma-GTP?
## Output 0.0

## Input In plain terms, does CN(C)CCCN1c2ccccc2CCc2ccccc21 [IMIPRAMINE] come in under 1 IU/L for gamma-GTP?
## Output 0.0

## Input In plain terms, does CC(C)OC(=O)C(C)(C)Oc1ccc(C(=O)c2ccc(Cl)cc2)cc1 [FENOFIBRATE] come in under 1 IU/L for gamma-GTP?
## Output 1.0

## Input In plain terms, does CN(C)CCCN1c2ccccc2CCc2ccc(Cl)cc21 [CLOMIPRAMINE] come in under 1 IU/L for gamma-GTP?
## Output 0.0

====

- Species on record: Rattus norvegicus
- Experiment: Open TG-GATES - Regimen: Daily Repeat
- Type: toxicity, organism-based, Sprague-Dawley
- Set-up: regimen Daily Repeat, gender Male, age 6 weeks
- Assay Context: in vivo, po, 100 mg/kg, […], tissue Blood, route gavage, dose level Low, time 14 day
Reported Property: Hb (g/dL)
Use g/dL as the unit, but write only the number.

So for COC1=CC(=O)C[C@@H](C)[C@]12Oc1c(Cl)c(OC)cc(OC)c1C2=O [GRISEOFULVIN] , the logged Hb turned out to be 14.2

So for CCOc1ccc(NC(=O)CC(C)O)cc1 (stereo not given) [BUCETIN] , the logged Hb turned out to be 14.6

So for CCOC(=O)CCC(=O)O[C@H]1[C@H](O[C@@H]2[C@@H](C)[C@H](O[C@H]3C[C@@](C)(OC)[C@@H](O)[C@H](C)O3)[C@@H](C)C(=O)O[C@H](CC)[C@@](C)(O)[C@H](O)[C@@H](C)C(=O)[C@H](C)C[C@@]2(C)O)O[C@H](C)C[C@@H]1N(C)C [ERYTHROMYCIN ETHYLSUCCINATE] , the logged Hb turned out to be 13.8

So for COc1ccc2[nH]c([S+]([O-])Cc3ncc(C)c(OC)c3C)nc2c1 (stereo not given) [OMEPRAZOLE] , the logged Hb turned out to be 14.2

So for NC(N)=Nc1nc(CSCCC(N)=NS(N)(=O)=O)cs1 [FAMOTIDINE] , the logged Hb turned out to be 14.4

====

- Species: Rattus norvegicus
- Experiment: Open TG-GATES - Regimen: Single
- Format: toxicity, organism-based, Sprague-Dawley
- Parameters: regimen Single, gender Male, age 6 weeks
- Assay Context: in vivo, po, 100 mg/kg, 6 h, tissue Plasma, route gavage, dose level Low
Reported Property: CRE
Be sure to follow the number with its unit.

So for COC1=CC(=O)C[C@@H](C)[C@]12Oc1c(Cl)c(OC)cc(OC)c1C2=O , the logged CRE turned out to be 0.4 mg/dL

So for CCOC(=O)CCC(=O)O[C@H]1[C@H](O[C@@H]2[C@@H](C)[C@H](O[C@H]3C[C@@](C)(OC)[C@@H](O)[C@H](C)O3)[C@@H](C)C(=O)O[C@H](CC)[C@@](C)(O)[C@H](O)[C@@H](C)C(=O)[C@H](C)C[C@@]2(C)O)O[C@H](C)C[C@@H]1N(C)C [ERYTHROMYCIN ETHYLSUCCINATE] , the logged CRE turned out to be 0.2 mg/dL

So for COc1ccc2[nH]c([S+]([O-])Cc3ncc(C)c(OC)c3C)nc2c1 (centres undefined) , the logged CRE turned out to be 0.4 mg/dL

So for NC(N)=Nc1nc(CSCCC(N)=NS(N)(=O)=O)cs1 , the logged CRE turned out to be 0.4 mg/dL

====

- Organism: Rattus norvegicus
- Experiment: Open TG-GATES - Regimen: Daily Repeat
- Assay type: toxicity, organism-based, Sprague-Dawley
- Set-up: regimen Daily Repeat, gender Male, age 6 weeks
- Assay Context: in vivo, po, 1000 mg/kg, […], tissue Blood, route gavage, dose level High, time 14 day
Reported Property: Bas (%)
Use % as the unit, but write only the number.

So for CCOc1ccc(NC(=O)CC(C)O)cc1 (stereo unspecified) , the logged Bas turned out to be 0.8

So for CCOC(=O)CCC(=O)O[C@H]1[C@H](O[C@@H]2[C@@H](C)[C@H](O[C@H]3C[C@@](C)(OC)[C@@H](O)[C@H](C)O3)[C@@H](C)C(=O)O[C@H](CC)[C@@](C)(O)[C@H](O)[C@@H](C)C(=O)[C@H](C)C[C@@]2(C)O)O[C@H](C)C[C@@H]1N(C)C [ERYTHROMYCIN ETHYLSUCCINATE] , the logged Bas turned out to be 0

So for CC(C)OC(=O)C(C)(C)Oc1ccc(C(=O)c2ccc(Cl)cc2)cc1 [FENOFIBRATE] , the logged Bas turned out to be 0.4

So for COc1ccc2[nH]c([S+]([O-])Cc3ncc(C)c(OC)c3C)nc2c1 (stereo unspecified) , the logged Bas turned out to be 0

So for NC(N)=Nc1nc(CSCCC(N)=NS(N)(=O)=O)cs1 , the logged Bas turned out to be 0

So for COC1=CC(=O)C[C@@H](C)[C@]12Oc1c(Cl)c(OC)cc(OC)c1C2=O , the logged Bas turned out to be 0

====

- Organism: Rattus norvegicus
- Experiment: Open TG-GATES - Regimen: Daily Repeat
- Assay type: toxicity, organism-based, Sprague-Dawley
- Design: regimen Daily Repeat, gender Male, age 6 weeks
- Assay Context: in vivo, po, 1000 mg/kg, […], tissue Plasma, route gavage, dose level High, time 14 day
I'd appreciate it if you could supply IP values for the items below.
Use mg/dL as the unit, but write only the number.

So for CCOc1ccc(NC(=O)CC(C)O)cc1 (stereo unspecified) [BUCETIN] , the logged IP turned out to be 6.5

So for COC1=CC(=O)C[C@@H](C)[C@]12Oc1c(Cl)c(OC)cc(OC)c1C2=O [GRISEOFULVIN] , the logged IP turned out to be 7.4

So for COc1ccc2[nH]c([S+]([O-])Cc3ncc(C)c(OC)c3C)nc2c1 (stereo unspecified) [OMEPRAZOLE] , the logged IP turned out to be 7.8

So for CCOC(=O)CCC(=O)O[C@H]1[C@H](O[C@@H]2[C@@H](C)[C@H](O[C@H]3C[C@@](C)(OC)[C@@H](O)[C@H](C)O3)[C@@H](C)C(=O)O[C@H](CC)[C@@](C)(O)[C@H](O)[C@@H](C)C(=O)[C@H](C)C[C@@]2(C)O)O[C@H](C)C[C@@H]1N(C)C [ERYTHROMYCIN ETHYLSUCCINATE] , the logged IP turned out to be 6.6

So for CC(C)OC(=O)C(C)(C)Oc1ccc(C(=O)c2ccc(Cl)cc2)cc1 [FENOFIBRATE] , the logged IP turned out to be 6.6

So for NC(N)=Nc1nc(CSCCC(N)=NS(N)(=O)=O)cs1 [FAMOTIDINE] , the logged IP turned out to be 7.4

====

- Organism: Rattus norvegicus
- Experiment: Open TG-GATES - Regimen: Daily Repeat
- Format: toxicity, organism-based, Sprague-Dawley
- Parameters: regimen Daily Repeat, gender Male, age 6 weeks
- Assay Context: in vivo, po, 0 mg/kg, […], tissue Plasma, route gavage, dose level Control, time 28 day
I'd appreciate it if you could supply K values for the items below.
Use meq/L as the unit, but write only the number.

So for CC(C)OC(=O)C(C)(C)Oc1ccc(C(=O)c2ccc(Cl)cc2)cc1 [FENOFIBRATE] , the logged K turned out to be 3.6

So for CN1C(=O)CN=C(c2ccccc2)c2cc(Cl)ccc21 , the logged K turned out to be 4.5

So for COc1ccc2[nH]c([S+]([O-])Cc3ncc(C)c(OC)c3C)nc2c1 (stereo not given) , the logged K turned out to be 3.8

So for COC1=CC(=O)C[C@@H](C)[C@]12Oc1c(Cl)c(OC)cc(OC)c1C2=O , the logged K turned out to be 3.6

So for CCOc1ccc(NC(=O)CC(C)O)cc1 (stereo not given) , the logged K turned out to be 3.9

====

I'd appreciate it if you could supply A/G values for the items below.
- Organism: Rattus norvegicus
- Experiment: Open TG-GATES - Regimen: Daily Repeat
- Type: toxicity, organism-based, Sprague-Dawley
- Parameters: regimen Daily Repeat, gender Male, age 6 weeks
- Assay Context: in vivo, po, 300 mg/kg, […], tissue Plasma, route gavage, dose level Middle, time 14 day
Give only the figure.

So for COC1=CC(=O)C[C@@H](C)[C@]12Oc1c(Cl)c(OC)cc(OC)c1C2=O [GRISEOFULVIN] , the logged A/G turned out to be 1.5

So for NC(N)=Nc1nc(CSCCC(N)=NS(N)(=O)=O)cs1 [FAMOTIDINE] , the logged A/G turned out to be 1.6

So for CCOc1ccc(NC(=O)CC(C)O)cc1 (centres undefined) [BUCETIN] , the logged A/G turned out to be 0.8

So for CCOC(=O)CCC(=O)O[C@H]1[C@H](O[C@@H]2[C@@H](C)[C@H](O[C@H]3C[C@@](C)(OC)[C@@H](O)[C@H](C)O3)[C@@H](C)C(=O)O[C@H](CC)[C@@](C)(O)[C@H](O)[C@@H](C)C(=O)[C@H](C)C[C@@]2(C)O)O[C@H](C)C[C@@H]1N(C)C [ERYTHROMYCIN ETHYLSUCCINATE] , the logged A/G turned out to be 1.1
